- target under test: human RGS14 RGS-box (wild-type) (Homo sapiens, UniProt O43566)
- Construct: human RGS14 RGS-box (aa 46–195 of UniProt O43566); host or cells: E. coli
- Sequence (O43566 46-195): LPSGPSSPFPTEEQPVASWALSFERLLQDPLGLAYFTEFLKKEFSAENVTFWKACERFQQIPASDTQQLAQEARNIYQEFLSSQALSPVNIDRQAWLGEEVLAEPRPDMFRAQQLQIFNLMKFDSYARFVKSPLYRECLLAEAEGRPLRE
- assay notes: Transcreener GDP RGScreen fluorescence polarization assay of RGS14 RGS-box GAP activity on Gαi1(DM)
- Assay type: biochemical
- run parameters: wild-type RGS14 RGS-box GAP activity, Gαi1(DM), Transcreener GDP RGScreen; read-out: RGS14 pIC50 (converted)
measured attribute: IC50

Past entries and their recorded results:
Which IC50 reading was recorded for the compound COc1ccc(-n2c(SC(C)C(=O)c3cc(C)c(C)cc3C)nc3ccccc32)cc1 (centres unmarked) ?
> 1000 µM

Which IC50 reading was recorded for the compound COc1ccc2nc(SC(C)C(=O)c3cccc(Cl)c3)[nH]c2c1 (centres unmarked) ?
> 1000 µM

Which IC50 reading was recorded for the compound Cc1ccc2[nH]c(SC(C)C(=O)c3ccc(OC(F)F)cc3)nc2c1 (centres unmarked) ?
> 1000 µM

Which IC50 reading was recorded for the compound CCN(CC)S(=O)(=O)c1cccc(-c2nnc3n2N=C(c2ccc(C)cc2)C(CC(=O)O)S3)c1 (centres unmarked) ?
93.3 µM

Turning now to a further compound:
Which IC50 reading was recorded for the compound CC(=O)N1CCc2cc(C(=O)C(C)Sc3nc4cc(C)ccc4[nH]3)ccc21 (centres unmarked) ?
> 1000 µM

---

- assay notes: Single-dose pharmacokinetic study, plasma and brain by LC-MS/MS
- Format: in vivo, male Swiss-Webster mice
- run parameters: male, Swiss-Webster (CFW), mouse, plasma, intraperitoneal; 30 mg/kg IP after 50 mg/kg oral 1-aminobenzotriazole; one of three mice, 1-h time point
measured attribute: concentration at 1 h (ng/mL)
Answers are plain numbers, in ng/mL.

Which concentration at 1 h reading was recorded for the molecule C1=C(c2cc3ccccc3o2)Nn2c(nnc2C2COc3ccccc3O2)S1 (stereo not shown) ?
170

---

- target under test: human RGS14 RGS-box (wild-type) (Homo sapiens)
- Construct: human RGS14 RGS-box (aa 46–195 of UniProt O43566); host or cells: E. coli
- assay notes: Transcreener GDP RGScreen fluorescence polarization assay of RGS14 RGS-box GAP activity on Gαi1(DM)
- Assay type: biochemical
- run parameters: values > 1.0 reflect RGS14 selectivity
Consider the following molecules; for each one, report its Ratio (RGS14 pIC50 / RGS12 pIC50).
Numbers only.

Past entries and their recorded results:
Which Ratio (RGS14 pIC50 / RGS12 pIC50) reading was recorded for the molecule COc1cccc(C2=Nn3c(COc4ccc(Cl)cc4)nnc3SC2)c1 ?
0.85

Which Ratio (RGS14 pIC50 / RGS12 pIC50) reading was recorded for the molecule COc1ccc(OCc2nnc3n2N=C(c2cccc(N4CCCC4=O)c2)CS3)cc1 ?
0.87

Which Ratio (RGS14 pIC50 / RGS12 pIC50) reading was recorded for the molecule O=C(O)CC1Sc2nnc(Cc3ccc(Br)cc3)n2N=C1c1ccc(Cl)cc1 (stereo not drawn) ?
0.91

Which Ratio (RGS14 pIC50 / RGS12 pIC50) reading was recorded for the molecule CC1Sc2nnc(Cc3ccc(Br)cc3)n2N=C1c1ccc(Cl)cc1 (stereo not drawn) ?
0.93

Which Ratio (RGS14 pIC50 / RGS12 pIC50) reading was recorded for the molecule C[C@H]1Sc2nnc(Cc3ccc(Br)cc3)n2N=C1c1ccc(NS(C)(=O)=O)cc1 ?
0.85

State the recorded Ratio (RGS14 pIC50 / RGS12 pIC50) for every item in the following list.
1. COc1ccc(-c2nnc3n2N=C(c2ccc(NC(C)=O)cc2)[C@@H](C)S3)cc1OC
2. COc1ccc(Cc2nnc3n2N=C(c2ccc(C)c(C)c2)[C@@H](C)S3)cc1OC

0.96
0.91
